system: VCAM-1; assay: TNF-α-induced VCAM-1 cell surface expression in HMVEC, flow cytometry; format: cell-based, human; settings: 100 nM
Give % Cell Surface Expression (VCAM-1) for every item shown.
One number for each entry, in %.

[[record]]
substance = "ToCoCsGsTsCsAsTsCsGsCsTsCoCoToCoAoGoGoG [ISIS 15168]"
test_target = "VCAM-1"
measurement_name = "% Cell Surface Expression (VCAM-1)"
reported = 44

[[record]]
substance = "ToCoCoCoGoCsCsTsGsTsGsAsCsAsToGoCoAoToT [ISIS 12854]"
test_target = "VCAM-1"
measurement_name = "% Cell Surface Expression (VCAM-1)"
reported = 28

[[record]]
substance = "ToCoAsGsTsAsAsTsAsGsCsCsCoCoAoCoAoToGoG [ISIS 17552, reference compound]"
test_target = "VCAM-1"
measurement_name = "% Cell Surface Expression (VCAM-1)"
reported = 85


Now, please, on to the next substance.
Endpoint output: % Cell Surface Expression (VCAM-1) of AoToGoCoAoTsTsCsTsGsCsCsCsCsCoAoAoGoGoA [ISIS 15727, reference compound] . Value?
74

All values here come from patent US6114517A.
